Reference source for all entries: patent US7794795B2

Test: Thiol peroxidase activity: oxidation of PhSH with H2O2, stopped-flow
Conditions: relative to 23a = 1
Experimental: All stopped-flow experiments were performed on a SX18 Stopped-Flow Spectrometer (Applied Photophysics, Leatherhead, UK). […] Stock solutions of 2.0×10^−3 M of catalyst in CH2Cl2 and 5.0×10^−2 M PhSH in CH2Cl2 were prepared. […] These two solutions were mixed in the stopped-flow spectrometer to give concentrations of 1.0×10^−5 M telluride, 1.0×10^−3 M PhSH, and 3.75×10^−3 M H2O2 and the increase in absorbance at 305 nm was measured. […]
Lab note: anything with v0 (rel) below 3 is marked Y; values at 3 or higher are marked N.

- compound: "CCCCCC[Te]CCCOc1cc(CO)cc(OCCC[Te]CCCCCC)c1OCCC[Te]CCCCCC [compound 15c]"
  assignedCategory: "N"
- compound: "CN(C)c1ccc([Te]CCCOc2cc(CO)cc(OCCC[Te]c3ccc(N(C)C)cc3)c2)cc1 [9b]"
  assignedCategory: "N"
- compound: "CCCCCC[Te]CCCOc1cc(CO)cc(OCCC[Te]CCCCCC)c1 [compound 9c]"
  assignedCategory: "N"
- compound: "OCc1cc(OCCC[Te]c2ccccc2)c(OCCC[Te]c2ccccc2)c(OCCC[Te]c2ccccc2)c1 [compound 15a]"
  assignedCategory: "Y"
- compound: "OCc1cc(OCCC[Te]c2ccccc2)cc(OCCC[Te]c2ccccc2)c1 [compound 9a]"
  assignedCategory: "Y"

---

The entries below are paired with their reported v0 (rel).
test: Thiol peroxidase activity: oxidation of PhSH with H2O2, stopped-flow; settings: relative to 23a = 1

- compound: "CN(C)c1ccc([Te]CCCOc2ccccc2)cc1 [compound 23b]"
  v0 (rel): 2.1
- compound: "CN(C)c1ccc([Te]CCCOc2cc(CO)cc(OCCC[Te]c3ccc(N(C)C)cc3)c2OCCC[Te]c2ccc(N(C)C)cc2)cc1 [15b]"
  v0 (rel): 6.3
- compound: "CN(C)c1ccc([Te]CCCOc2cc(COc3cc(CO)cc(OCc4cc(OCCC[Te]c5ccc(N(C)C)cc5)cc(OCCC[Te]c5ccc(N(C)C)cc5)c4)c3)cc(OCCC[Te]c3ccc(N(C)C)cc3)c2)cc1 [compound 20b]"
  v0 (rel): 6.3

---

Examples of molecules with documented v0 (rel) follow.
experiment: Thiol peroxidase activity: oxidation of PhSH with H2O2, stopped-flow; details: relative to 23a = 1

- molecule: "CCCCCC[Te]CCCOc1cc(COc2ccc(C(C)(c3ccc(OCc4cc(OCCC[Te]CCCCCC)cc(OCCC[Te]CCCCCC)c4)cc3)c3ccc(OCc4cc(OCCC[Te]CCCCCC)cc(OCCC[Te]CCCCCC)c4)cc3)cc2)cc(OCCC[Te]CCCCCC)c1 [22c]"
  v0 (rel): 26
- molecule: "c1ccc(OCCC[Te]c2ccccc2)cc1 [compound 23a, 1-Phenoxy-3-(phenyltelluro)propane]"
  v0 (rel): 1
- molecule: "CCCCCC[Te]CCCOc1cc(COc2cc(CO)cc(OCc3cc(OCCC[Te]CCCCCC)cc(OCCC[Te]CCCCCC)c3)c2)cc(OCCC[Te]CCCCCC)c1 [20c]"
  v0 (rel): 11
- molecule: "CN(C)c1ccc(CCCOc2cc(COc3ccc(C(C)(c4ccc(OCc5cc(OCCCc6ccc(N(C)C)cc6)cc(OCCCc6ccc(N(C)C)cc6)c5)cc4)c4ccc(OCc5cc(OCCCc6ccc(N(C)C)cc6)cc(OCCCc6ccc(N(C)C)cc6)c5)cc4)cc3)cc(OCCCc3ccc(N(C)C)cc3)c2)cc1 [22b]"
  v0 (rel): 11
- molecule: "OCc1cc(OCc2cc(OCCC[Te]c3ccccc3)cc(OCCC[Te]c3ccccc3)c2)cc(OCc2cc(OCCC[Te]c3ccccc3)cc(OCCC[Te]c3ccccc3)c2)c1 [compound 20a]"
  v0 (rel): 3.6
